test system: cellular dehydrogenase activity; conditions: Conc 20 μM; normalized score vs mock-treated (DMSO) wells
MEASUREMENT KIND: MTT (composite Z-score)
Reply with the value as a number alone.

Q. Which MTT (composite Z-score) value belongs to COc1ccc(/C=C/C(=O)O)cc1OC ?
A. −1.206

Q. Data request, read-out MTT (composite Z-score), for CC(=O)Oc1ccccc1C(=O)Oc1ccccc1C(=O)O [diplosalsalate]
A. −0.860

Q. Consider the compound shown here: COc1ccc2c(c1)OC/C(=C\c1ccc(OC)c(O)c1)C2=O What is its recorded MTT (composite Z-score)?
A. −1.865

Q. Which MTT (composite Z-score) reading was recorded for the compound CC1=CC(=O)C2=C(C)CC[C@@H]3[C@H](OC(=O)[C@H]3C)[C@@H]12 ?
A. −1.134

Q. Quick check: MTT (composite Z-score) of O=C(/C=C/c1ccccc1)c1ccc(O[C@@H]2O[C@H](CO)[C@@H](O)[C@H](O)[C@H]2O)cc1O [2′,4′-dihydroxychalcone 4′-glucoside] ?
A. −1.358

Q. Tell me the measured MTT (composite Z-score) of CCC(N)C(O)c1ccc(O)c(O)c1 (stereo not drawn) [ethylnorepinephrine] , please.
A. −1.017

Q. Bench note: what MTT (composite Z-score) did C/C1=C\CC(C)(C)/C=C/CC2(C)OC2CC1 (stereo not drawn) show?
A. −0.802

Q. # input compound: COc1ccc2c(c1)C1(C)CCC(=O)CC1CC2 (stereo not drawn) ; wanted: its MTT (composite Z-score)
A. −1.993

Q. Which MTT (composite Z-score) value is on record for C=C1C2CC[C@@]3(C)[C@H](c4ccoc4)OC(=O)C[C@]13O[C@H]1C[C@H](OC(C)=O)C(C)(C)[C@H](CC(=O)OC)[C@@]21C ?
A. −0.881
